Target: leucine aminopeptidase
Assay: Inhibition of leucine aminopeptidase
Format: biochemical
Settings: substrate L-leucine 4-nitroanilide
PROPERTY: Leucine aminopeptidase IC50 (μug/ml)

[
  {
    "MOLECULE": "O=P(O)(O)C1CC(c2cccc3ccccc23)=NO1 (stereo not shown)",
    "PROPERTY": "Leucine aminopeptidase IC50",
    "UNIT TAG": "μug/ml",
    "RECORDED NUMBER": 92
  },
  {
    "MOLECULE": "CCCC1=NOC(P(=O)(O)O)C1 (stereo not shown)",
    "PROPERTY": "Leucine aminopeptidase IC50",
    "UNIT TAG": "μug/ml",
    "RECORDED NUMBER": 35
  },
  {
    "MOLECULE": "COc1ccc(C2=NOC(P(=O)(O)O)C2)cc1 (stereo not shown)",
    "PROPERTY": "Leucine aminopeptidase IC50",
    "UNIT TAG": "μug/ml",
    "RECORDED NUMBER": 100
  },
  {
    "MOLECULE": "O=P(O)(O)C1CC(c2ccccc2)=NO1 (stereo not shown) [Example 36]",
    "PROPERTY": "Leucine aminopeptidase IC50",
    "UNIT TAG": "μug/ml",
    "RECORDED NUMBER": 56
  },
  {
    "MOLECULE": "O=C(C1=NOC(P(=O)(O)O)C1)c1ccccc1 (stereo not shown)",
    "PROPERTY": "Leucine aminopeptidase IC50",
    "UNIT TAG": "μug/ml",
    "RECORDED NUMBER": 65
  },
  {
    "MOLECULE": "O=P(O)(O)C1CC(c2cccs2)=NO1 (stereo not shown)",
    "PROPERTY": "Leucine aminopeptidase IC50",
    "UNIT TAG": "μug/ml",
    "RECORDED NUMBER": 79
  },
  {
    "MOLECULE": "O=[N+]([O-])c1ccc(C2=NOC(P(=O)(O)O)C2)cc1 (stereo not shown)",
    "PROPERTY": "Leucine aminopeptidase IC50",
    "UNIT TAG": "μug/ml",
    "RECORDED NUMBER": 27
  },
  {
    "MOLECULE": "CCOP(=O)(OCC)C1CC(c2ccccc2)=NO1 (stereo not shown)",
    "PROPERTY": "Leucine aminopeptidase IC50",
    "UNIT TAG": "μug/ml",
    "RECORDED NUMBER": 65
  },
  {
    "MOLECULE": "O=P(O)(O)C1CC(c2ccccc2)=NO1 (stereo not shown) [Example 37]",
    "PROPERTY": "Leucine aminopeptidase IC50",
    "UNIT TAG": "μug/ml",
    "RECORDED NUMBER": 52
  },
  {
    "MOLECULE": "O=P(O)(O)C1CC(c2ccccc2)=NO1 (single isomer, unassigned; (-)) [Example 62]",
    "PROPERTY": "Leucine aminopeptidase IC50",
    "UNIT TAG": "μug/ml",
    "RECORDED NUMBER": 130
  }
]

The measured values listed here are drawn from patent US5006515A.
